Taken from the array DNA melting data of Ke et al. (doi:10.1101/2024.01.08.574731).

- Procedure Details: folding enthalpy; higher = less favourable; fluorescence melt of hairpins on a sequencing array, two-state fit
- Experimental Context: sodium 0.088 M
Measured Endpoint: folding enthalpy (kcal/mol)
The reply should be a number in kcal/mol, with the unit left off.

Prompt: Using the record for GCGGTGCGAAAGCGCAGC ((.(.((....)).).)) , report its folding enthalpy.
Completion: -23.4

Prompt: Field request: folding enthalpy | item: GATCAGGGAAACTTGATC (((((.(....).)))))
Completion: -30.7

Prompt: # get_value(readout='folding enthalpy', item= GCTCACCGAAAGGTCAGC (((.(((....))).))) )
Completion: -26.3

Prompt: Entry GCCTTGCGAAAGCACCGC ((..(((....)))..)) : reported folding enthalpy = ?
Completion: -10.6

Prompt: Any idea what its folding enthalpy is? The sequence is GACATAGGAAACTGTGTC ((((.((....)).))))
Completion: -40.5

Prompt: Form field: reported folding enthalpy of GATCGCCCGTGCGATC ((((((....))))))
Completion: -33.7

Prompt: For the sequence shown here, GTAAGCGGAAACACTTAC (((((.(....).))))) , give the reported folding enthalpy.
Completion: -29.8

Prompt: # query: folding enthalpy of entry GCTTACCCGAAAGGGAGC (((..(((....))))))
Completion: -15.3

Prompt: Given CGTAGCGGAAACGCAACG (((.(((....))).))) , state its recorded folding enthalpy.
Completion: -29.5

Prompt: For the sequence shown here, GCGTTATTACGC ((((....)))) , give the reported folding enthalpy.
Completion: -26

Prompt: Query (sequence): GCTACGCGAAAGCATTGC ((.(.((....)).).)) ; field requested: folding enthalpy
Completion: -12.7

Prompt: # lookup: folding enthalpy of GATCTATTTTTAGATC ((((((....))))))
Completion: -42.5

----------
- Procedure Details: folding enthalpy; higher = less favourable; fluorescence melt of hairpins on a sequencing array, two-state fit
- Experimental Context: sodium 0.088 M
Measured Endpoint: folding enthalpy
Entry format: amount then unit.

Prompt: Given GCACCCGAAAGGGATTGC ((((((....)))..))) , state its recorded folding enthalpy.
Completion: -18 kcal/mol

Prompt: Given GTCTATACGAAAGTAGAC (((..(((....)))))) , state its recorded folding enthalpy.
Completion: -21.8 kcal/mol

Prompt: Consider the sequence shown here: GGGTGTGGAAACGCACCC (((((.(....).))))) What is its recorded folding enthalpy?
Completion: -45.2 kcal/mol

Prompt: Item GAAGACGCGAAAGCGTTC (((..(((....)))))) has what recorded folding enthalpy?
Completion: -7.5 kcal/mol

Prompt: I'd like to know its folding enthalpy. The sequence in question is GCTGAGCGAAAGCCAAGC (((..((....))..)))
Completion: -18.8 kcal/mol

Prompt: Which value of folding enthalpy has been reported for GGATGTCCGAAAGGATCC (((..(((....)))))) in the records?
Completion: -14.3 kcal/mol

Prompt: For GATCCGGCGCGGATC ((((((...)))))) , what is its reported folding enthalpy?
Completion: -37.1 kcal/mol

Prompt: What folding enthalpy value was documented for this sequence, GTACCAGGAAACCAGTAC ((((..(....)..)))) ?
Completion: -11.4 kcal/mol

Prompt: What value of folding enthalpy has been reported for the following sequence? GCATACGAAAGTACCTGC ((((((....)))..)))
Completion: -13.2 kcal/mol

Prompt: Record request: folding enthalpy value, item GCGAGCGGAAACGCTCAC (.(((((....))))).)
Completion: -12.3 kcal/mol

Prompt: Form field: reported folding enthalpy of GCTGTGCGAAAGCATCGC ((..(((....)))..))
Completion: -17.9 kcal/mol

Prompt: Any idea what its folding enthalpy is? The sequence is GCAAGGCGAAAGCCATGC (((.(((....))).)))
Completion: -32.8 kcal/mol
